The values you see were collected from ChEMBL document CHEMBL1961873.

# Assay target: Fibroblast growth factor receptor 4 (Homo sapiens);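 note: reported figure is the averaged percent inhibition of FGFR4, from the GSK PKIS kinase screening panel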
# Experimental context: at 1 µM
Measured property: inhibition (%)

>  <Compound smiles>
CNC(=O)c1cncc(/C=C/c2c(Cl)cccc2Cl)c1

>  <Unit annotation>
%

>  <Measured result>
1.17

$$$$
>  <Compound smiles>
[O-][S+]1CCN(Cc2ccc(-c3ccc4ncnc(Nc5ccc(OCc6ccccc6)c(F)c5)c4c3)o2)CC1

>  <Unit annotation>
%

>  <Measured result>
0.02

$$$$
>  <Compound smiles>
CCN1CCC(CC(=O)Nc2n[nH]c3nc(-c4cccs4)c(Br)cc23)CC1

>  <Unit annotation>
%

>  <Measured result>
1.97

$$$$
>  <Compound smiles>
COc1cccc(-n2ncc3c(N/N=C/c4cccc(F)c4)ncnc32)c1

>  <Unit annotation>
%

>  <Measured result>
-5.17

$$$$
>  <Compound smiles>
O=C1Nc2ccc(C(=O)c3ccco3)cc2C1=Cc1cc(Cl)c(O)c(Cl)c1

>  <Unit annotation>
%

>  <Measured result>
7.04

$$$$
